experimental_system: HDAC8 (Homo sapiens, UniProt Q9BY41)
Construct: HDAC8 (full length, C-terminal His tag, BPS Bioscience, cat. #: 50008); purchased BPS Bioscience 50008
Sequence (Q9BY41 1-377): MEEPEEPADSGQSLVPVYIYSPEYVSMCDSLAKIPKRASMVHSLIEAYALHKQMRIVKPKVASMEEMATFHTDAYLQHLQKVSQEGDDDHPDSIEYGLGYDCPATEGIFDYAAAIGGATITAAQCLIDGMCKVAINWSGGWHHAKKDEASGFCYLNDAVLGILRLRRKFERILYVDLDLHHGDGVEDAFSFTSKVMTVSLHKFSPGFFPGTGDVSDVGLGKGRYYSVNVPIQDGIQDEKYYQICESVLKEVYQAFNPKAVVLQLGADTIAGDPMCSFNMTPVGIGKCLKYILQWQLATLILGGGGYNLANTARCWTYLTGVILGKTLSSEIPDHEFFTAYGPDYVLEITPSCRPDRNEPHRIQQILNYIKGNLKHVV
test: Recombinant HDAC µSPOT microarray binding assay;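 further: peptide µSPOT slides incubated with varying HDAC enzyme concentrations, imaged signal intensity fitted by four-parameter variable-slope regression, EC50 is enzyme concentration giving half-maximal binding, pH 7.4 HEPES buffer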
condition_set: HDAC8 µSPOT microarray dose-response fit, HillSlope Value; X = Asuha; sheet Fig. 3 HDAC8
assay_readout: HillSlope
Write the number on its own, no unit after it.

Previously resolved entries follow.
Exercise: Record request: HillSlope value, item H2B 58-73 (AMGIMNSFVNDIFERI; UniProt P06899 59-74, looked up, fragment)
Solution: 0.19

Exercise: Record request: HillSlope value, item H2B 61-76 (IMNSFVNDIFERIAGE; UniProt P62807 62-77, looked up, fragment)
Solution: 0.02

Exercise: Record request: HillSlope value, item H2B 67-82 (NDIFERIAGEASRLAH; UniProt P06899 68-83, looked up, fragment)
Solution: 0.69

New cases:
Exercise: Record request: HillSlope value, item H2A 100-115 (VTIAQGGVLPNIQAVL; UniProt P0C0S8 101-116, looked up, fragment)
Solution: 0.63

Exercise: Record request: HillSlope value, item H2A 16-31 (TRSSRAGLQFPVGRVH; microarray-immobilized; UniProt P0C0S8 17-32, looked up, fragment)
Solution: 6.81

Exercise: Record request: HillSlope value, item H2A 37-52 (GNYSERVGAGAPVYLA; UniProt P04908 38-53, looked up, fragment)
Solution: 7.44

---

experimental_system: HDAC4 (Homo sapiens)
Construct: purchased BPS Bioscience 50004
Sequence (P56524 627-1084): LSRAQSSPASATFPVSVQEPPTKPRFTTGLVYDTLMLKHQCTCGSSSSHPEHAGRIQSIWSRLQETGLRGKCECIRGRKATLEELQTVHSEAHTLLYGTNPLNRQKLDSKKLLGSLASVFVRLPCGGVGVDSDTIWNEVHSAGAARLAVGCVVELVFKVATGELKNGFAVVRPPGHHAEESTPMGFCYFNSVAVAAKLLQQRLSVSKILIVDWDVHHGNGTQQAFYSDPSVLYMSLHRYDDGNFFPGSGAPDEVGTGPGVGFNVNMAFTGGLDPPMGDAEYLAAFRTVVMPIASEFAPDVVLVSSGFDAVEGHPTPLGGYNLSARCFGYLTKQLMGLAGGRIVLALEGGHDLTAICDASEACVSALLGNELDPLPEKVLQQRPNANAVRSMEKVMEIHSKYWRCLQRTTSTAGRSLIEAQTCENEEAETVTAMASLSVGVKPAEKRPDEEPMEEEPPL
test: HDAC inhibition assay (fluorogenic, Ac-Leu-Gly-Lys(Tfa)-AMC)
Format: biochemical
condition_set: inhibitor 5 µM, 2 internal replicates
Non-standard residues stand in square brackets, D forms with d. Residues, ends and D or L forms follow the SMILES beside them. *: point of attachment. Asu = N[C@@H](CCCCCC(=O)O)C(=O)O; NHOH = ON*
assay_readout: residual enzymatic activity relative to control wells
Write the number on its own, no unit after it.

Exercise: Record request: residual enzymatic activity relative to control wells value, item CC(=O)NCC(=O)NCC(=O)N[C@@H](CCCCCC(=O)NO)C(=O)N[C@@H](C)C(=O)N[C@@H](CCCNC(=N)N)C(=O)N[C@@H](C)C(=O)N[C@@H](CCCCN)C(=O)N[C@@H](C)C(=O)N[C@@H](CCCCN)C(=O)N[C@H](C(=O)N[C@@H](CCCNC(=N)N)C(=O)N[C@@H](CO)C(=O)N[C@@H](CO)C(=O)N[C@@H](CCCNC(=N)N)C(=O)N[C@@H](C)C(=O)NCC(=O)N[C@@H](Cc1c[nH]c2ccccc12)C(N)=O)[C@@H](C)O [9a] (Ac-GG[Asu](NHOH)ARAKAKTRSSRAGW-NH2)
Solution: 94.96

# evaluate next
Exercise: Record request: residual enzymatic activity relative to control wells value, item CC(=O)N1CCC[C@H]1C(=O)N[C@@H](CCCNC(=N)N)C(=O)N[C@@H](CCCCN)C(=O)N[C@@H](CCC(N)=O)C(=O)N[C@@H](CC(C)C)C(=O)N[C@@H](C)C(=O)N[C@H](C(=O)N[C@@H](CCCCN)C(=O)N[C@@H](C)C(=O)N[C@@H](C)C(=O)N[C@@H](CCCNC(=N)N)C(=O)N[C@@H](CCCCCC(=O)NO)C(=O)N[C@@H](CO)C(=O)N[C@@H](C)C(=O)N1CCC[C@H]1C(=O)N[C@@H](C)C(=O)N[C@@H](Cc1c[nH]c2ccccc12)C(N)=O)[C@@H](C)O [14a] (Ac-PRKQLATKAAR[Asu](NHOH)SAPAW-NH2)
Solution: 82.79

Data credit: paper PMC7782793
